Assign pIC50 to each entry below.
target: FKBP (Homo sapiens, UniProt P62942); assay: PPIase Inhibition Assay; format: biochemical; details: inhibition of PPIase activity of FKBP, substrate Succinyl-Ala-Phe-Pro-Phe-para-nitroanilide
Sequence (P62942 whole entry): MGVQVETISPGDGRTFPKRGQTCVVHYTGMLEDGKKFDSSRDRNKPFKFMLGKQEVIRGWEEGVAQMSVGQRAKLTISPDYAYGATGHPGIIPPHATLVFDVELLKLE
Scale explanation: pIC50 corresponds to minus log10 of a concentration expressed in moles per litre.

**Query** Reported pIC50 for CC[C@H](C)[C@H](NC(=O)[C@@H]1CCCN1CC(CC(C)C)NC(=O)[C@H](CC1CCCCC1)NC(=O)OC(C)(C)C)C(=O)OCc1ccccc1 (stereo partly drawn) [Example 11] : what is it?
**Result** 5.08

**Query** Reported pIC50 for CC[C@H](C)[C@H](NC(=O)[C@@H]1CCCN1C[C@@H](NC(=O)OC(C)(C)C)[C@@H](C)CC)C(=O)NCc1ccccc1 [Example 6] : what is it?
**Result** 6.41
